TEST_DETAILS: compound fluorescence in toxin protease inhibitor counterscreen, primary screen, artefact control for toxin protease inhibitor project, biochemical, multiplex microsphere, HTS (AID 624483)
MEASUREMENT_CONTEXT: compound autofluorescence counterscreen, microsphere flow cytometry; active compounds read high
Out of some 360,000 compounds screened, about 11,000 (3.1%) were called active. Inconclusive results (about 2%) are left out. Shown is part of a subset that was picked to be rich in actives.
Quick rule: fluorescence intensity of at least 4000 means y, below that means n.

Cc1ccc2[nH]c(=O)c(-c3nc4c(C)cccn4c3NCc3ccco3)cc2c1 = n
Cc1cc(=O)oc2cc(OC(C)C(=O)Nc3ccc(N4CCOCC4)cc3)ccc12 (stereo not given) = y
Cc1ccccc1CSc1nnc(CCCCCNC(=O)OC(C)(C)C)o1 = n
CNc1nc2c(C)cccn2c(=O)c1C=Nc1ccc(OC)cc1 = y
CCCN(CCC)c1nc2c(C)cccn2c(=O)c1/C=C1/SC(=S)N(Cc2ccco2)C1=O = y
O=C(Nc1ccccc1C(=O)O)c1ccc(N2C(=O)C3CC=CCC3C2=O)cc1 (stereo not given) = y
COc1ccc(-c2cc(=O)oc3cc(OC(C)C(=O)Nc4ccc(CN5CCOCC5)cc4)ccc23)cc1 (stereo not given) = y
COc1cccc(NC(=O)CSc2nnc(C3CCCCC3)n2N)c1 = y
COCOc1cccc(CN2CCC(C)(Oc3ccc(SC)cc3)C2)c1 (stereo not given) = n
